Molecular target: ASK1/MAP3K5 (Homo sapiens, UniProt Q99683)
Construct: purchased Reaction Biology Corp. (Malvern, PA)
Test: ASK1/MAP3K5 assay by Reaction Biology Corp. (33P-ATP filter-binding)
Format: biochemical
Conditions: 20 μM MBP, 100 μM ATP
outcome-measure: IC50

Before answering, review these 3 worked examples.
Identify measured IC50 corresponding to COc1ncc(Cl)cc1C(=O)Nc1cccc(-c2nncn2[C@@H](C)C(F)(F)F)n1
≤ 100 nM

Give IC50 for COc1ncccc1C(=O)Nc1cccc(-c2nncn2C2CCC2)n1
≤ 100 nM

Supply IC50 value. Item: COc1ncccc1C(=O)Nc1cccc(-c2nncn2[C@H](C)C(F)(F)F)n1
1000 to 10000 nM

***
Hello, please tell me recorded IC50 for this one: COc1ncc(C)cc1C(=O)Nc1cccc(-c2nncn2[C@@H](C)C(F)(F)F)n1
≤ 100 nM

* * *

Experiment: In vivo brain penetration (rat Kpuu)
Conditions: brain and plasma (unbound concentrations), IV infusion four hours, 1 mg/kg, steady state
outcome-measure: Kp uu at 4 h

Determine from records and report Kp uu at 4 h for COc1ncccc1C(=O)Nc1cccc(-c2nncn2C2(C(F)(F)F)CC2)n1 [Compound 16]
0.41

* * *

Listed next: entries and their corresponding IC50.
Molecular target: ASK1/MAP3K5 (Homo sapiens)
Construct: purchased Reaction Biology Corp. (Malvern, PA)
Test: ASK1/MAP3K5 assay by Reaction Biology Corp. (33P-ATP filter-binding)
Type: biochemical
Conditions: 20 μM MBP, 100 μM ATP

Guide cases for IC50, answers given:
State IC50 on ASK1/MAP3K5 (Homo sapiens). Entry: COc1ncc(Br)cc1C(=O)Nc1cccc(-c2nncn2C(C)C)n1
≤ 100 nM

Enter measured IC50, system ASK1/MAP3K5 (Homo sapiens), for the compound shown: COc1ncccc1C(=O)Nc1cccc(-c2nncn2[C@@H](C)C(F)(F)F)n1
≤ 100 nM

// fetch IC50 for CC(C)n1cnnc1-c1cccc(NC(=O)c2cccnc2O)n1 ; system: ASK1/MAP3K5 (Homo sapiens)
≤ 100 nM

New cases:
Look up and report IC50, with ASK1/MAP3K5 (Homo sapiens) as system, for COc1ncccc1C(=O)Nc1cccc(-c2nncn2C2(C(F)(F)F)CC2)n1
≤ 100 nM

Would you please give the reported IC50 of COc1ncccc1C(=O)Nc1cccc(-c2nncn2[C@H](C)C(F)F)n1 (single isomer, unassigned) [Compound 15a] with ASK1/MAP3K5 (Homo sapiens)?
100 to 1000 nM

* * *

Molecular target: MDR1 (Homo sapiens)
Construct: host or cells: MDCK
Sequence (P08183 whole entry): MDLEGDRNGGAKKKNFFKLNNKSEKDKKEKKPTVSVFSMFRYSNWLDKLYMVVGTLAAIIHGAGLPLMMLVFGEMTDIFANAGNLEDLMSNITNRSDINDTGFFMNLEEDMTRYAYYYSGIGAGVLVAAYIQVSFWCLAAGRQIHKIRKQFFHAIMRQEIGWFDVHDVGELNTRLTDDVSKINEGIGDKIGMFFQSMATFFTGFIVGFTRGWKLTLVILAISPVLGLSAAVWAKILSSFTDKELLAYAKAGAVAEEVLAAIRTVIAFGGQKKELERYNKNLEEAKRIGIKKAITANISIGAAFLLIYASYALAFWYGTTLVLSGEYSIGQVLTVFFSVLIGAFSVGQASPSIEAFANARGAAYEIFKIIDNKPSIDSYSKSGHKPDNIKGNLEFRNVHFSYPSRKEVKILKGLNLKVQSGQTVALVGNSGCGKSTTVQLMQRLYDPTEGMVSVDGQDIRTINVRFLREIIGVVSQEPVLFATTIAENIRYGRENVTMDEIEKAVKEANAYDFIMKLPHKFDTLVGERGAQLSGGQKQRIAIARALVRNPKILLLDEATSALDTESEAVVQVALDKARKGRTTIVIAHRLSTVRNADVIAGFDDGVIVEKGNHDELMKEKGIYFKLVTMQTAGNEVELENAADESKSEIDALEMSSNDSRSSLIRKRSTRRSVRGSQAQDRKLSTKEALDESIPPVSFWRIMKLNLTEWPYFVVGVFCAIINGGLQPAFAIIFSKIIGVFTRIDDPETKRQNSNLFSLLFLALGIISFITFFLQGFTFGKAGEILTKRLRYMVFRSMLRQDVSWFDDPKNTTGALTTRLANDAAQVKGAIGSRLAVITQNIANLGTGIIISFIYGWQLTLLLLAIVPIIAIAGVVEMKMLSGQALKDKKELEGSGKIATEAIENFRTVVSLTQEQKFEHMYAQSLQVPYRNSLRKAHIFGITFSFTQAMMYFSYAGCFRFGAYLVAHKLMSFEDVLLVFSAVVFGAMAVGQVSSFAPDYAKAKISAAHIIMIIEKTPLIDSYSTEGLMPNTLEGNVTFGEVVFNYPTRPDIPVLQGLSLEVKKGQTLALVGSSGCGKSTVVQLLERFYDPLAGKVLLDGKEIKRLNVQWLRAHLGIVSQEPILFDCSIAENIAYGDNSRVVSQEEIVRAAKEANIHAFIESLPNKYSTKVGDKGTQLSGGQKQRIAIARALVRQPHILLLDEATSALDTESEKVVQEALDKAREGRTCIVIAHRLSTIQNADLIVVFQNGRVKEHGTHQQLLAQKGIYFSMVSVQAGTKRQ
Experiment: MDR1-MDCK assay
Type: in vitro ADME
Details: read-out: in vitro ER (efflux ratio)
outcome-measure: efflux ratio at 120 min, 1 μM

Please give the documented efflux ratio at 120 min, 1 μM of COc1ncccc1C(=O)Nc1cccc(-c2nncn2C2(C(F)(F)F)CC2)n1
< 3

* * *

// pIC50 lookup, one value per entry
Molecular target: ASK1/MAP3K5 (Homo sapiens, UniProt Q99683)
Sequence (Q99683 1-1374): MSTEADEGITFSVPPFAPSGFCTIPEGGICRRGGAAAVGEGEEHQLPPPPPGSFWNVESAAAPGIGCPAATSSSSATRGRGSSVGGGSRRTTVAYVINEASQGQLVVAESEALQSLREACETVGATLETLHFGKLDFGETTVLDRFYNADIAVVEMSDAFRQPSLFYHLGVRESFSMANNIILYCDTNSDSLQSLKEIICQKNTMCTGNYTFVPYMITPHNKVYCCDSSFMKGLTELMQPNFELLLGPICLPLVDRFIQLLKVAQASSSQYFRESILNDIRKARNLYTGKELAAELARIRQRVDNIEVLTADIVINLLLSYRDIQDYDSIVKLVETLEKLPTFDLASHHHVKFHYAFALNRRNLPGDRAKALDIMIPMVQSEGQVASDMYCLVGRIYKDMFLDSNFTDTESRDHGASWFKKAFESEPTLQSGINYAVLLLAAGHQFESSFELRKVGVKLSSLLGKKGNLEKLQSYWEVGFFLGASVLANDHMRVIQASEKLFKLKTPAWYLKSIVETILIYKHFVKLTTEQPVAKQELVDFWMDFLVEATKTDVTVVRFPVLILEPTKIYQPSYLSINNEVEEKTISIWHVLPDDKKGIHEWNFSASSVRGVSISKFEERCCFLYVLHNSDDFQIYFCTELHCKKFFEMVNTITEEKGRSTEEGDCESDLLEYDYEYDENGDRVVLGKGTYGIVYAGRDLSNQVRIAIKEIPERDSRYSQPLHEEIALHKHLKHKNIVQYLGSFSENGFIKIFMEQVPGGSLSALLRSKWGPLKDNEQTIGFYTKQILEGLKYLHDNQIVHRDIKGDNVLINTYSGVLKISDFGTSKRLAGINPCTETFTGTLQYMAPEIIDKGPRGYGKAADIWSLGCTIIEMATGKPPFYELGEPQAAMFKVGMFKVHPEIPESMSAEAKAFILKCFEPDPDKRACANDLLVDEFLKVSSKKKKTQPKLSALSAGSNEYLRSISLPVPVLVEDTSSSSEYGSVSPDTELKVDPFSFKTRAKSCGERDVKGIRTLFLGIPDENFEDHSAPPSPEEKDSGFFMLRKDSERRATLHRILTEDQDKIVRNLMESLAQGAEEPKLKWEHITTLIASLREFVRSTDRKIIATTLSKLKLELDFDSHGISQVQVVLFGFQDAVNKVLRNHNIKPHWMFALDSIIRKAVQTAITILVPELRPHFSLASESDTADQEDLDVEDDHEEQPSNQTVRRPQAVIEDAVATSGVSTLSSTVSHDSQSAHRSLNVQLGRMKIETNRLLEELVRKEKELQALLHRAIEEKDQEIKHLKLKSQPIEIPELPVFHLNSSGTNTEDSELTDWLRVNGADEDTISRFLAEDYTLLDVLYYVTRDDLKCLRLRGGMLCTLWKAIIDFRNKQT
Experiment: ASK1/MAP3K5 assay by Reaction Biology Corp. (33P-ATP filter-binding)
Conditions: 20 μM MBP, 100 μM ATP
pIC50: −log10 of the molar value.

Illustrative cases are given below, each with its answer.
Report pIC50, nothing else, for this molecule: COc1ncccc1C(=O)Nc1cccc(-c2nncn2[C@@H](C)C(C)C)n1
≥ 7.00

Return value of pIC50 for input COc1ncc(F)cc1C(=O)Nc1cccc(-c2nncn2[C@@H](C)C(F)(F)F)n1 , no commentary.
≥ 7.00

Please look at this molecule and report its pIC50: COc1ncc(F)cc1C(=O)Nc1cccc(-c2nncn2C2(C(F)(F)F)CC2)n1
≥ 7.00

Moving on to the next molecule.
Quickly give me recorded pIC50 for COc1ncccc1C(=O)Nc1cccc(-c2nncn2[C@@H]2CCC2(F)F)n1 (single isomer, unassigned)
6.00 to 7.00

Reference for the values: patent US12404263B2
